target: UniProt P51532; experiment: ATPase catalytic activity assay (ADP-Glo), BRG-1; conditions: 1 h, read-out: BRG1 Max % Inhibition, ADP-Glo, 30 nM BRG-1, 400 μM ATP
Documented Emax across a set of compounds
recorded-endpoint: Emax (%)

compound | unit-spec | assay-value
C[C@@]1(C#N)COCc2ccc(C(=O)NCc3cc4nc(-c5cn(C6COC6)nc5CC(F)F)ccc4cn3)cc21 [Compound 136] | % | 25
C[C@@]1(C#N)COCc2ncc(C(=O)NCc3cc4nc(-c5cccc(C6CC6)n5)ccc4cn3)cc21 [Compound 208] | % | 92
COc1nn(C)cc1-c1ccc2cnc(CNC(=O)c3cnc4c(c3)[C@](C)(F)COC4)cc2n1 [Compound 334] | % | 61
C[C@@]1(C#N)COCc2ccc(C(=O)NCc3cc4cc(-c5cncc(N6CCC6)n5)ccc4nn3)cc21 [Compound 356] | % | 95
CN1Cc2ccc(-c3ccc4cnc(CNC(=O)c5ccc6c(c5)[C@](C)(C#N)COC6)cc4n3)cc2C1=O [Compound 485] | % | 82
C[C@@]1(C#N)COCc2ccc(C(=O)NCc3cc4nc(-c5cccc(C#N)c5)ccc4cn3)cc21 [Compound 112] | % | 55
COc1cc(-c2ccc3cnc(CNC(=O)c4ccc5c(c4)[C@](C)(C#N)COC5)cc3n2)c(F)cn1 [Compound 446] | % | 44

---

biological target: BRG-1 (Homo sapiens, UniProt P51532); assay: ATPase catalytic activity assay (ADP-Glo), BRG-1; conditions: 1 h, read-out: BRG1 Max % Inhibition, ADP-Glo, 30 nM BRG-1, 400 μM ATP
Sequence (P51532 whole entry): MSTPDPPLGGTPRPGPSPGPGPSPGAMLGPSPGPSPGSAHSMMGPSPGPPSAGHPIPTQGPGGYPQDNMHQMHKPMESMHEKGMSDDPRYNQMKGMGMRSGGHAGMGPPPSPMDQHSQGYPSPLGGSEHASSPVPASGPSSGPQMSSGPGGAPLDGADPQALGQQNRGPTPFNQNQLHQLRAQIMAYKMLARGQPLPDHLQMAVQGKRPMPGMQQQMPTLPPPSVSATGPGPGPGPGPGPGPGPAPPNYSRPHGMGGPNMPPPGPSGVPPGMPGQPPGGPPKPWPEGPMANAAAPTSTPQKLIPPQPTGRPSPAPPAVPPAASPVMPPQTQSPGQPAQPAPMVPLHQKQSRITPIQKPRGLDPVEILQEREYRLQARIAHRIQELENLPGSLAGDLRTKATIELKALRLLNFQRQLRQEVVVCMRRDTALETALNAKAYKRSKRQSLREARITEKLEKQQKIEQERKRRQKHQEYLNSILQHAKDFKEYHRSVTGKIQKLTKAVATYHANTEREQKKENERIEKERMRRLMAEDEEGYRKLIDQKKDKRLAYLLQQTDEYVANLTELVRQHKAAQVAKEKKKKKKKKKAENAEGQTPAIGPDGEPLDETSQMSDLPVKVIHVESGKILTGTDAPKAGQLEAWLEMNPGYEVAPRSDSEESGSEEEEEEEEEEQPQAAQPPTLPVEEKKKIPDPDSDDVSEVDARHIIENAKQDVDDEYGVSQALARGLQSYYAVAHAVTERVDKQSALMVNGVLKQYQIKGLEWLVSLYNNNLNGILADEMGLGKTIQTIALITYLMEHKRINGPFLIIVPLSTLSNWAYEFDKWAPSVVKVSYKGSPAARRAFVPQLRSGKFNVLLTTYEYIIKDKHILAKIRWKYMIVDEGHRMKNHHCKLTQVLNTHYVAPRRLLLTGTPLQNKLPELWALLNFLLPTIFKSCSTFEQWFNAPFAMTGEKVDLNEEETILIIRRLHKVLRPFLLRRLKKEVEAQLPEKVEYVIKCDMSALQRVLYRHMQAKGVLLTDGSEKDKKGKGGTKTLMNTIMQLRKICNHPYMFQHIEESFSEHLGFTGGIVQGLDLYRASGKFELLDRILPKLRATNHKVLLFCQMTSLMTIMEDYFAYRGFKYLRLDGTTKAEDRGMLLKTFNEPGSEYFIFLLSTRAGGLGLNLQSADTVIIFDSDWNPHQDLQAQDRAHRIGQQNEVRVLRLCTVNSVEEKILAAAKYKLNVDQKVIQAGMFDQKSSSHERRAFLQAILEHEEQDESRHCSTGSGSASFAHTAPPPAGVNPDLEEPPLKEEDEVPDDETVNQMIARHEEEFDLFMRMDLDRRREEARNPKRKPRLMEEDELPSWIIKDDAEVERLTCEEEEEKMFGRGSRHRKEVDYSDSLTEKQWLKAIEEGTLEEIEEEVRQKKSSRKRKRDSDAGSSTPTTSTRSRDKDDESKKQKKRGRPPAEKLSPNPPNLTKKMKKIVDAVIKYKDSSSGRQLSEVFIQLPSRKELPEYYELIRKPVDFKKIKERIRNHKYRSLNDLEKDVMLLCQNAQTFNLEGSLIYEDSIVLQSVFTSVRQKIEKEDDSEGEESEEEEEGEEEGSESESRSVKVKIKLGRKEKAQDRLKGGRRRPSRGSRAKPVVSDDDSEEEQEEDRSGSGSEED
Each entry below carries its reported Emax.

compound | unit-spec | Emax
COc1cc(C(C)(C)C)ccc1-c1ccc2cnc(CNC(=O)c3ccc4c(c3)[C@](C)(C#N)COC4)cc2n1 | % | 32
CN1CCCc2c(-c3ccc4cnc(CNC(=O)c5ccc6c(c5)[C@](C)(C#N)COC6)cc4n3)cccc21 | % | 67
C[C@@]1(C#N)COCc2ccc(C(=O)NCc3cc4nc(-c5ccc(N6CCC6)cc5)ccc4cn3)cc21 | % | 86
C[C@@]1(C#N)COCc2ccc(C(=O)NCc3cc4nc(-c5ccnc([C@@H]6CC6(F)F)n5)ccc4cn3)cc21 | % | 79
C[C@@]1(C#N)COCc2ccc(C(=O)NCc3cc4nc(-c5ccnc(N6CCC6)c5F)sc4cn3)cc21 | % | 72
COc1nn(C)cc1-c1cnc2cnc(CNC(=O)c3ccc4c(c3)[C@](C)(F)COC4)cc2n1 | % | 53
COc1cc(C2CCC2)ccc1-c1ccc2cnc(CNC(=O)c3ccc4c(c3)[C@](C)(C#N)COC4)cc2n1 | % | 74
Cn1cc(-c2nc3cc(CNC(=O)c4ccc5c(c4)[C@](C)(C#N)COC5)ncc3s2)cn1 | % | 41
C[C@@]1(C#N)COCc2ccc(C(=O)NCc3cc4c(cn3)CCN(c3ccc(=O)n(C5CC5)n3)C4)cc21 | % | 62
COc1c(-c2ccc3cnc(CNC(=O)c4ccc5c(c4)[C@](C)(C#N)COC5)cc3n2)cnn1C | % | 71
C[C@@]1(C#N)COCc2ccc(C(=O)NCc3cc4nc(-n5cc(F)cn5)ccc4cn3)cc21 | % | 50
C[C@@]1(C#N)COCc2ccc(C(=O)NCc3cc4cc(-c5ccnc(N6CCC6)n5)ccc4nn3)cc21 | % | 92
COCCNC(=O)c1cccc(C#Cc2ccnc(CNC(=O)c3ccc4c(c3)[C@](C)(C#N)COC4)c2)c1 | % | 99
COC1(c2ccccc2)CCN(c2ccnc(CNC(=O)c3ccc4c(c3)[C@](C)(C#N)COC4)c2)C1 (stereo partly shown) | % | 50
CC(=O)N1CCOc2ccc(-c3ccc4cnc(CNC(=O)c5ccc6c(c5)[C@](C)(C#N)COC6)cc4n3)cc21 | % | 98
C[C@@]1(C#N)COCc2ccc(C(=O)NCc3cc4nc(-c5cncc(N6CC(F)C6)n5)ccc4cn3)cc21 | % | 94
C[C@@]1(C#N)COCc2ccc(C(=O)NCc3cc4nc(-c5ccnc(N6CCC6)c5)ccc4cn3)cc21 | % | 87
C[C@@]1(F)COCc2ccc(C(=O)NCc3cc4nc(-c5ccnc(N6CC[C@@H]7COC[C@H]7C6)n5)ccc4cn3)cc21 | % | 96
C[C@@]1(C#N)COCc2ccc(C(=O)NCc3cc4c(cn3)CCN(c3ccnc(N5CCC5)n3)C4)cc21 | % | 67
C[C@@]1(F)COCc2ccc(C(=O)NCc3cc4nc(-c5ccccc5)ccc4cn3)cc21 | % | 62
C[C@@]1(C#N)COCc2ccc(C(=O)NCc3cc4c(cn3)CCN(c3ccccc3)C4)cc21 | % | 64
COC[C@H](NC(=O)c1ccc2c(c1)[C@](C)(C#N)COC2)c1cc(/C=C/c2ccccc2)ccn1 | % | 55
C[C@@]1(C#N)COCc2ccc(C(=O)NCc3cc4nc(-c5cccc6c5ccn6CC(F)F)ccc4cn3)cc21 | % | 90
C[C@@]1(F)COCc2ccc(C(=O)NCc3cc4nc(-c5cncc(C6CC6)n5)ccc4cn3)cc21 | % | 90
CN1C(=O)Cc2cc(-c3ccc4cnc(CNC(=O)c5ccc6c(c5)[C@](C)(C#N)COC6)cc4n3)ccc21 | % | 83
C[C@@H]1CN(c2cccc([C@H]3C[C@H](c4ccnc(CNC(=O)c5ccc6c(c5)[C@](C)(C#N)COC6)c4)C3)n2)C[C@H](C)O1 | % | 90
C[C@@]1(C#N)COCc2ccc(C(=O)NCc3cc4nc(-c5cc(F)cc(N6CCC6)c5)ccc4cn3)cc21 | % | 93
C[C@@H]1CN(c2nccc(-c3ccc4cnc(CNC(=O)c5ccc6c(c5)[C@](C)(C#N)COC6)cc4n3)n2)CCO1 | % | 98
